System: MS2 coat protein
procedureText: apparent KD of MS2 coat protein; higher = weaker reporter binding
measurementContext: Eterna round: R107; input ligand: arginine 13.2 mM
Reported apparent KD of MS2 coat protein values for a set of sequences
Return type: number; implicit unit nM.

Some entries whose results are on file:
| sequenceChain | measurementUnits | apparent KD of MS2 coat protein |
| --- | --- | --- |
| GCCAAAGGCUACAUGAGGAUCACCCAUGUACGAGGACCGGUACGGCCGCCACUCGUACGGCCUCCUACUGGACGGGAAACCGUCG [ETA NP+V+V2 #28] | nM | 13.1 |
| GGACUAACUGGAAGGAGCGACACGCAGAAACUGCAAUUUCCUCCACACGAGGAUCACCCGUGUCAGGUAGGUCGCCAGUUAGUCG [ArgBX 29] | nM | 31.3 |

Entry under test: AGGUACGAAAACGUGGGUGAGUCGUACCAACGAGGACCGGUACGGCCGCCACUCGAAUAAACAUGAGGAUCACCCAUGUAAUAAU [T''-M-T'-T-MS2 - Design 6] . Its apparent KD of MS2 coat protein was 25

---

System: K4 kissing-loop RNA reporter;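 also: bound reporter read as fluorescence of individual clusters on recovered sequencing chips by microscopy, with normalized cluster intensities fitted with a binding model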
procedureText: apparent KD of K4 kissing-loop reporter; higher = weaker reporter binding
measurementContext: Eterna round: R107; input ligand: arginine 13.2 mM
measure: apparent KD of K4 kissing-loop reporter (µM)
Provide the reading as a plain figure in µM.

Here are 5 sequences together with their reported answers.
| sequenceChain | measure | recordedNumber |
| --- | --- | --- |
| UGUCAUUGGUCGGCCGCCACUAUAUAAAAGAGUGAUGUUCUAAAGACGGAUCGAAAGAUCUGUCAUAGGACCGGGACCGAUGACU [TrypBS 20 #SwitchBubble #StaticStem] | apparent KD of K4 kissing-loop reporter | 0.204 |
| GCAGUGAUGUUGCGGAUGUACAGUGGAGUGCGAGGACCGGUACGGCCGCCACUCGUACAGAACAAGCUAAUAUAUCGAUAGGUGA [X] | apparent KD of K4 kissing-loop reporter | 0.242 |
| AAUAAAAUCACGGCCGCCACUGAUACUAAUAUUAGCAGUGAUGUUGCUAUGUAUAAUUUAUUAAACAGGACCGGGUGAAUAUUUA [JR_ExcTryptoB_Sub015] | apparent KD of K4 kissing-loop reporter | 0.129 |
| GUGAAGGAGCUGCAGUGAUGUUGCAGAAACUAGGAUAUCAGGAAACUGAGAAGGAGUCAACUCCUUCACCUAAAUACUGCAGAAA [KL-SSFMN-A23] | apparent KD of K4 kissing-loop reporter | 0.13 |
| CUCGUGGGUUUGAGAGGGCUUGUGGGAAGUAAGGAUAUUUAGGGAGGAAGAAGGUACUAUAGAAUAUAGUGAUGUUAUAUAUGGG [SSFMNA.Y] | apparent KD of K4 kissing-loop reporter | 0.224 |

Lab note: GGCAUGCGUAGAGUGAUGUUCUAAGAUGAUACCAGUGCGGAAACGCACCCUUGGCAGCAUCUGACGAGCAUGCCGGCGAAAGCCU gave apparent KD of K4 kissing-loop reporter of 0.586

---

Test system: MS2 coat protein
procedureText: apparent KD of MS2 coat protein; higher = weaker reporter binding
measurementContext: Eterna round: R107; input ligand: none
apparent KD of MS2 coat protein of 20 nM or higher: t. Under 20 nM: f.

# example entries with known answers
| sequenceChain | classification |
| --- | --- |
| UGUCAUGGAAACAUGACUGGUUCUACCGGUCGAGGACCGGUACGGCCGCCACUCGGUUGGUGGCACAUGAGGAUCACCCAUGUUA [SS Tryp A #13] | t |
| ACUAGAGGUGGAAGGAGCGGGAGACAUGAGCAUCACAUGAGGAUCACCCAUGUAGGAUCAUCCCAGGUAGGUCGCCAUGUCGAAA [h.hgmullin] | t |
| GUACAUGAGGAUCACCCAUGUAUAGUUGAAGGAGCGACCAGAGGGUCAGGUAGGUCGCAGCACAUGGUGUAAACCCGUGUAUGCC [#1 Exclusion - Arginine A Attempt #22 (Inspired by Pi)] | t |

Hi team, for GCACAAGAUGGAAGGAGCGCUGGAAAAGGUCACAUGAGGAUCACCCAUGUUCUCCUAACCGAGCAGGUAGGUCGCCAUCUUGUGC [SSAB NP+V+V2 #1] , is the recorded apparent KD of MS2 coat protein at or above 20 nM?
t

Given UGUAUGGACUGAAGGAGCGGGUUGAUAACAUGAGGAUCACCCAUGUAAAAGGCGAAAGCCGCCCAGGUAGGUCGCAGUCCAUACU , state whether its apparent KD of MS2 coat protein is at least 20 nM.
f

Check if apparent KD of MS2 coat protein >= 20 nM (inclusive). Item: UGGGCUGGGUGCGUAAAGGGCCUGGCGCAUCGAGGACCGGUACGGCCGCCACUCGGCUGUACAUGAGGAUCACCCAUGUCAGGGU [#1 Same State - Tryptophan A Attempt #18 (HarryS)]
t

Does the sequence CCAUGCGUAGGAAGGAGCGCAUACUUCACAUGAGGAUCACCCAUGUCGAGACGUGAGUCAGUGCAGGUAGGUCGCCUACGCAUGG [Same State - Arginine B (Freestyle 27)] have recorded apparent KD of MS2 coat protein that is 20 nM or more?
f

Check if apparent KD of MS2 coat protein >= 20 nM (inclusive). Item: AGUAGUUGACAAAAGUCAGCUACAACUGAAGGAGCGGGUGGGUGCCCAGGUAGGUCGCAGGAACAUGAGGAUCACCCAUGUAUAA [ArgAS 3 #BothOrNeither #OpenEnded]
t

---

System: MS2 coat protein
procedureText: apparent KD of MS2 coat protein; designed switch direction (-1 OFF switch, 1 ON switch): 1; higher = weaker reporter binding
measurementContext: Eterna round: R95; input ligand: none
Class field: derived from apparent KD of MS2 coat protein; ranges low bracket (below 0.09 µM), middle bracket (0.09 µM to below 0.2 µM), high bracket (0.2 µM or more)

Take a look at these entries with their results.
| sequenceChain | classification |
| --- | --- |
| AAUUAUUAACAUGAGGAUCACCCAUGUAUUUUUUGCUCGUCAUGUAUUAUUAUUAUUAUUAUUAUUAUUAUUAUUAA [my first RNA] (puzzle: Sensor for hsa-mir-208a version 2) | low bracket |
| UGUAAACAUGAGGAUCACCCAUGUAAUAUAAUGGGAGGAUAUCUGAAUUAAUUAAAUUAAGGAGAAGGCCUAAUGU [Mat - Same State 1 - Mod of Eli - D47] (puzzle: Same State 1) | high bracket |
| AGCGCGGUCUCGCAGGAUAUCCACAUUCCUACAUGAGGAUCACCCAUGUCGCUGCAGGAUAUUAGGGAGAAGGGUGAUGCCGCGG [Quesed] (puzzle: Same State 2) | low bracket |
| AAUAAUUUACAUGAGGAUCACCCAUGUGGUAAACAUGCUUUUUGCUCGUCUUAUGGUUUUUUUUUUUUUUUUUUUUU [viviankchen1] (puzzle: Sensor for hsa-mir-208a version 2) | middle bracket |
| AGUCCAGCAUGAGCUGGACAAAAGCAUGUACAUGAGGAUCACCCAUGUUCAUGUACAAGCUUUUUGCUCGUCUUAAU [Mat - hsa-mir-208a - Mod of JL - 61] (puzzle: Sensor for hsa-mir-208a) | high bracket |
| AUUAAACAUGAGGAUCACCCAUGUCAACAAAGUCGAGGAUAUGGGCAAAUAAAAUAUGAACCAGAAGGCGAAUAAU [salish99_ss1_r3_064] (puzzle: Same State 1) | high bracket |
| AUAAGUUCGAUGCUCGUCUCUCCGUACAAACAUGAGGAUCACCCAUGUGACUGGGCAAUAGCCCAAUCAGUAUGGCC [Beongetiqu] (puzzle: Sensor for hsa-mir-208a) | low bracket |

Now let's try a different one.
Into which category would you place AAAGGACAUGAGGAUCACCCAUGUAGAAAAUACACAGGAUAUCGUCAUAUCGAAUUAUAAUGAGAAGGGUGCAAAA [Vebeinlala] (puzzle: Same State 1) ?
middle bracket

---

Recorded apparent KD of MS2 coat protein, one value per entry.
Test system: MS2 coat protein
procedureText: apparent KD of MS2 coat protein; designed switch direction (-1 OFF switch, 1 ON switch): -1; higher = weaker reporter binding
measurementContext: Eterna round: R95; input ligand: FMN 200 uM
Mention the unit after the number when you answer.

Previously resolved entries follow.
| sequenceChain | apparent KD of MS2 coat protein |
| --- | --- |
| GGUGCUGGCGCGUCGGUGUUGGUGCAAUAAGCUUGUGAGACAUGAGGAUCACCCAUGUCCUCGUGGGCUCGUCUUGU [salish99_TOv2_r2_091] (puzzle: Sensor v3, turn-off variant 2) | 91.2 nM |
| CGUCCGGCUUCCCUUCAAGACAUGAGGAUCACCCAUGUUUUUGUUUUUGCGAGCUUUUUGCUUUUUGCUCGUCUUGU [Even Better Attempt 2] (puzzle: Sensor v3, turn-off variant 1) | 20.2 nM |
| UGAGUGUGAGGAUAUGGUAAAGAUAAGAUGAUGAAAGAACUCCAGAAGGCACAUGAGGAUCACCCAUGUAGAUG [JL-ex4-2.12 Jieux mod] (puzzle: Exclusion 4) | 81.1 nM |

UAAUACAAGUAAAGAUCCUACAUGAGGAUCACCCAUGUGCUCGUCUUGUAAAGUACUAUCACGAAAGUGAUAGUACU [Mat - Sensor v3 - turn-off var 1 - Eli Mod - D86] (puzzle: Sensor v3, turn-off variant 1) yielded apparent KD of MS2 coat protein of 30.3 nM

The sequence identified as GAAUACAAGCAAAGAUCCUACAUGAGGAUCACCCAUGUGCUCGUCUUGUAAAGUACUAUCACGAAAGUGAUAGUACA [Mat - Sensor v3 - turn-off var 1 - Eli Mod - D78] (puzzle: Sensor v3, turn-off variant 1) registered its apparent KD of MS2 coat protein at 76.7 nM
